- Test system: rat hepatocytes
- measurement-notes: Hepatocyte assay for determination of metabolic stability
- Format: in vitro ADME
- cond: after incubation with rat hepatocytes
measured-parameter: CLblood (calculated blood clearance, well-stirred) (L/h/kg)

{"columns": ["molecule", "value-observed"],
 "data": [
  ["CCCCCOc1ccc2cc(C(=O)CC(CCn3nnc4ccccc4c3=O)C(=O)O)oc2c1 (single isomer, unassigned; (+)) [Example 57]", 2.14],
  ["O=C(CC(CCn1nnc2ccccc2c1=O)C(=O)O)c1noc2cc(OCCc3ccccc3)ccc12 (racemic) [Example 144]", 1.74],
  ["O=C(CC(CCn1nnc2ccccc2c1=O)C(=O)O)c1cc2ccc(OCC3CC3)cc2s1 (single isomer, unassigned; (+)) [Example 112]", 1.99],
  ["O=C(CC(CCn1nnc2ccccc2c1=O)C(=O)O)c1noc2cc(OCc3ccc(F)cc3)ccc12 (racemic) [Example 136]", 0.73],
  ["CS(=O)(=O)c1ccc(COc2ccc3oc(C(=O)CC(CCn4nnc5ccccc5c4=O)C(=O)O)cc3c2)cc1 (racemic) [Example 38]", 0.75],
  ["O=C(CC(CCn1nnc2ccc(C(F)(F)F)cc2c1=O)C(=O)O)c1cc2ccc(OCC3CC3)cc2s1 (single isomer, unassigned; enantiomer 2) [Example 130]", 2.09],
  ["O=C(CC(CCn1nnc2ccc(C(F)(F)F)cc2c1=O)C(=O)O)c1noc2cc(OCc3ccccc3)ccc12 (racemic) [Example 154]", 1.22],
  ["O=C(O)[C@@H]1[C@@H](Cn2nnc3ccc(C(F)(F)F)cc3c2=O)CC[C@H]1C(=O)c1cc2cc(OCCc3ccccc3)ccc2o1 (single isomer, unassigned; enantiomer 2) [Example 159]", 0.65],
  ["O=C(C[C@H](CCn1nnc2ccccc2c1=O)C(=O)O)c1noc2cc(OCC3CCOCC3)ccc12 (single isomer, unassigned; enantiomer 2) [Example 135]", 1.36],
  ["O=C(C[C@@H](CCn1nnc2ccccc2c1=O)C(=O)O)c1noc2cc(OCC3CCOCC3)ccc12 (single isomer, unassigned; enantiomer 1) [Example 134]", 1.18],
  ["NC(=O)c1cccc(COc2ccc3oc(C(=O)CC(CCn4nnc5ccccc5c4=O)C(=O)O)cc3c2)c1 (racemic) [Example 32]", 1.32],
  ["O=C(CC(CCn1nnc2ccc(C(F)(F)F)cc2c1=O)C(=O)O)c1noc2cc(OCC3CCOCC3)ccc12 (racemic) [Example 155]", 1.21]
]}
